Where do the numbers come from? From ChEMBL document CHEMBL1255477.

# Test system: Klebsiella pneumoniae
# Assay Notes: Antimicrobial activity against Klebsiella pneumoniae CRE harboring beta-lactamase KPC-2 by broth dilution method
# Assay type: functional
Entries and their MIC

Here are 3 molecules together with their reported answers.
[
  {
    "Molecule": "C[C@@H](O)[C@H]1C(=O)N2C(C(=O)O)=C(SCCNC=N)C[C@H]12 [IMIPENEM ANHYDROUS]",
    "MIC": "> 32 mg/L"
  },
  {
    "Molecule": "C[C@H]1[C@H](NC(=O)/C(=N\\OC(C)(C)C(=O)O)c2csc(N)n2)C(=O)N1S(=O)(=O)O",
    "MIC": "> 32 mg/L"
  },
  {
    "Molecule": "C[C@@H](O)[C@H]1C(=O)N2C(C(=O)O)=C(S[C@@H]3CN[C@H](C(=O)N(C)C)C3)[C@H](C)[C@H]12",
    "MIC": "> 32 mg/L"
  }
]

q: Requested field: MIC. Item: CC1(C)[C@H](NC(=O)/C(=N\OCc2cc(=O)c(O)cn2O)c2csc(N)n2)C(=O)N1OS(=O)(=O)O (stereo in doubt)
a: ≤ 0.06 mg/L

====

# Assay Notes: Inhibition of beta-lactamase SHV-4
Attribute Measured: IC50 (µM)
API: value field is a number in µM; no unit string.

q: Requested field: IC50. Item: CC1(C)[C@H](NC(=O)/C(=N\OCc2cc(=O)c(O)cn2O)c2csc(N)n2)C(=O)N1OS(=O)(=O)O (stereo in doubt)
a: 4.3

====

# Test system: Escherichia coli
# Assay Notes: Antimicrobial activity against Escherichia coli HB101 harboring beta-lactamase TEM-5 by broth dilution method
# Format: functional
Entries and their MIC
API: value field is a number in mg/L; no unit string.

[
  {
    "Molecule": "C[C@H]1[C@H](NC(=O)/C(=N\\OC(C)(C)C(=O)O)c2csc(N)n2)C(=O)N1S(=O)(=O)O",
    "Units Text": "mg/L",
    "MIC": 32
  },
  {
    "Molecule": "C[C@@H](O)[C@H]1C(=O)N2C(C(=O)O)=C(SCCNC=N)C[C@H]12 [IMIPENEM ANHYDROUS]",
    "Units Text": "mg/L",
    "MIC": 0.25
  }
]

Now let's try a different one.
q: Requested field: MIC. Item: CC1(C)[C@H](NC(=O)/C(=N\OCc2cc(=O)c(O)cn2O)c2csc(N)n2)C(=O)N1OS(=O)(=O)O (stereo in doubt)
a: 32

====

Entries and their MIC50
# Tested on: Klebsiella aerogenes
# Assay Notes: Antimicrobial activity against Enterobacter aerogenes by broth dilution method
# Type: functional
API: value field is a number in µg/mL; no unit string.

[
  {
    "Molecule": "C[C@@H](O)[C@H]1C(=O)N2C(C(=O)O)=C(S[C@@H]3CN[C@H](C(=O)N(C)C)C3)[C@H](C)[C@H]12",
    "Attribute Measured": "MIC50",
    "Endpoint Result": 0.25
  },
  {
    "Molecule": "C[C@@H](O)[C@H]1C(=O)N2C(C(=O)O)=C(SCCNC=N)C[C@H]12 [IMIPENEM ANHYDROUS]",
    "Attribute Measured": "MIC50",
    "Endpoint Result": 2
  },
  {
    "Molecule": "C[C@H]1[C@H](NC(=O)/C(=N\\OC(C)(C)C(=O)O)c2csc(N)n2)C(=O)N1S(=O)(=O)O",
    "Attribute Measured": "MIC50",
    "Endpoint Result": 4
  }
]

Now let's try a different one.
q: What is its MIC50 for Klebsiella aerogenes? Entry: CC1(C)[C@H](NC(=O)/C(=N\OCc2cc(=O)c(O)cn2O)c2csc(N)n2)C(=O)N1OS(=O)(=O)O (stereo in doubt)
a: 0.5
